- Experimental system: Phosphatidylinositol 4,5-bisphosphate 3-kinase catalytic subunit beta isoform (Homo sapiens, UniProt P42338)
- Sequence (P42338 whole entry, canonical isoform): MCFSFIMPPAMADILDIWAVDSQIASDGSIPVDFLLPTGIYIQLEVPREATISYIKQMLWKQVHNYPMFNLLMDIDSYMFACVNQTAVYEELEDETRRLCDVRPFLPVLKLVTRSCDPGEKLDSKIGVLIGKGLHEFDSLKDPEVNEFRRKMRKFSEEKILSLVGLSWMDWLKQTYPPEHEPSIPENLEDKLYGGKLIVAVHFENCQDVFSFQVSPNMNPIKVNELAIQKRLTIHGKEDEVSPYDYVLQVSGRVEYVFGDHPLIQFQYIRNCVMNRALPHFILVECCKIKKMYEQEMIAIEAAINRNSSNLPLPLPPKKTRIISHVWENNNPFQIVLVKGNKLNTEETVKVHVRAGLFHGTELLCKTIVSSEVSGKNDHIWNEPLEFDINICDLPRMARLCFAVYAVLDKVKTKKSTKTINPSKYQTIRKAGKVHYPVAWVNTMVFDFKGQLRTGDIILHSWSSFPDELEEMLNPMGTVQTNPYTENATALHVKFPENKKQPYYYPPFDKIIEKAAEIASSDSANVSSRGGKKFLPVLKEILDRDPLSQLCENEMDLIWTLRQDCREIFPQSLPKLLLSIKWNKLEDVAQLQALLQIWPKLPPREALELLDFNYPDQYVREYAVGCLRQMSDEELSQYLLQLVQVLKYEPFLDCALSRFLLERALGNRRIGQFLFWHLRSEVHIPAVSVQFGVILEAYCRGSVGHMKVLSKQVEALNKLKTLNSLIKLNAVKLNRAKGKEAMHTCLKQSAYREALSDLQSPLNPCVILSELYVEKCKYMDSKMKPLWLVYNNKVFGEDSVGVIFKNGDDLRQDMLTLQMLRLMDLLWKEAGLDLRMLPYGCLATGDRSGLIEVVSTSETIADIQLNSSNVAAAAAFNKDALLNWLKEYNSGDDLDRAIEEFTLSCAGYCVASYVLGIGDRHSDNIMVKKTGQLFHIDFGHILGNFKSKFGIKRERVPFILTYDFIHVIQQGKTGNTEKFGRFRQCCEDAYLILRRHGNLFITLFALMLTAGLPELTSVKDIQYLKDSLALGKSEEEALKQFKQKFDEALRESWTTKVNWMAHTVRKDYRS
- Test method notes: Inhibition of PI3Kbeta (unknown origin) using PIP2 as substrate measured after 1 hr by ADP-glo plus luminescence assay
For each record, write down the corresponding pIC50.
# pIC50 = -log10(concentration in molar units)

Inquiry: Given `NC(=O)c1cccc2cc(C(=O)N3CCN(Cc4cc5nc(-c6cnc(N)nc6)nc(N6CCOCC6)c5o4)CC3)oc12` , state its recorded pIC50.
Reply text: 7.16

Inquiry: Same lookup for `NC(=O)c1cccc2cc(C(=O)N3CCN(Cc4cc5nc(-c6cnc(N)nc6)nc(N6CCOCC6)c5s4)CC3)oc12` , please.
Reply text: 7.96

Inquiry: Same lookup for `Cc1c(CN2CCN(C(=O)c3cc(Cc4n[nH]c(=O)c5ccccc45)ccc3F)CC2)sc2c(N3CCOCC3)nc(-c3cnc(N)nc3)nc12` , please.
Reply text: 7.28

Inquiry: Same lookup for `Cc1c(CN2CCN(C(=O)c3cc4cccc(C(N)=O)c4o3)CC2)sc2c(N3CCOCC3)nc(-c3cnc(N)nc3)nc12` , please.
Reply text: 7.37

Data origin, for the record: ChEMBL document CHEMBL4813994
